experiment: small-molecule microarray binders of probe aShh, primary screen, biochemical, biotinylated probe, 635/667 nm fluorescence (AID 1114); conditions: higher = more signal;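 also: probe is biotin-labelled aShh protein from a stem cell growth factor screen; measures binding of labelled protein to compounds printed on the slide; score merges feature fluorescence at 667 nm with signal-to-noise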
assay-endpoint: composite z-score
Hey, just send me the number, nothing else.

1. CCc1cccc(NC(=O)O[C@H]2[C@H](OC(=O)Nc3ccc4c(c3)OCO4)[C@@H](OC(=O)Nc3ccc4c(c3)OCO4)[C@@H](OC)O[C@@H]2CO)c1
0.214
2. CCOC(=O)[C@H](CC(C)C)NC(=O)CCC1CC(OC(=O)NCc2cccc3ccccc23)CC2(CCCC(COC(=O)NCCN3CCOCC3)O2)O1 (some centres not stated)
-0.0605
3. CO[C@H]([C@@H](C)[C@H](OC)c1ccccc1)[C@H](C)[C@@H](OC)[C@H](C)C(C)=O
-0.367

Given the compound CC(CCN1CCCCc2nc(C)c(C)cc21)=NOC(C)CN1CCCCc2nc(C)c(C)cc21 (configuration not stated) , what is its reported composite z-score?
-0.0709

Given the compound "CN(C)CCCNC(=O)[C@@H]1c2ccccc2C(=O)N(Cc2ccccc2)[C@H]1c1ccc(CO)cc1" , what is its reported composite z-score?
-0.281

Given the compound "CCOC(=O)NN=C1C[C@@H](O)[C@@H](O)[C@@H]2[C@@H]3C(=O)N(C4CCCCC4)C(=O)[C@@H]3CC[C@H]12" , what is its reported composite z-score?
0.199

Given the compound "C[C@@H](c1ccccc1)N1C(=O)[C@H]2[C@H]3[C@H](O)C=CC(=O)[C@@H]3CC[C@H]2C1=O" , what is its reported composite z-score?
-0.34

---

target: Streptavidin (Streptomyces avidinii); assay: streptavidin binders on small-molecule microarray, primary screen, artefact control for SMM compound annotation, biophysical, 635/667 nm fluorescence (AID 1147); details: streptavidin binding, higher = more signal;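 also: signal reflects streptavidin binding to arrayed compounds as a control protein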
assay-endpoint: composite z-score
Hey, just send me the number, nothing else.

Here is how some molecules turned out for composite z-score.
1) CCOC(=O)[C@H](Cc1ccccc1)NC(=O)CCC1CC(OC(=O)NCc2ccc3c(c2)OCO3)CC2(CCCC(COC(=O)NCc3ccccc3)O2)O1 (stereo partly drawn)
1.13
2) COc1ccccc1CN1C(=O)c2ccccc2[C@@]2(Cc3ccccc3N(C(C)C)C2=O)[C@@H]1c1ccc(CO)cc1
-0.213

Please find the next molecule below.
Given the molecule "COCCOC(=O)N1C(=O)[C@@]2(c3ccccc31)[C@H](C(N)=O)[C@H]1C(=O)O[C@H](c3ccccc3)[C@H](c3ccccc3)N1[C@@H]2c1ccccc1OCCO" , what is its reported composite z-score?
0.662

---

assay: osmotic lysis modulators in infected erythrocytes, primary screen, PSAC antagonist project, cell-based, P. falciparum Indochina, OD700, 3 h (AID 1156); details: higher = more signal, called active from +8 up or from −8 down
assay-endpoint: z-score
Hey, just send me the number, nothing else.

Here is how some compounds turned out for z-score.
1) C#C[C@@H](CC)O[Si](C#Cc1ccc(Oc2ccccc2)cc1)(C(C)C)C(C)C
-1.4
2) CC(C)[C@H](NC(=O)OC(C)(C)C)[C@@H](O)CC(=O)OC(C)(C)C
0.835
3) COC(=O)[C@@]1(Cc2ccccc2)[C@H]2c3cc(C(=O)N4CCCC4)n(Cc4ccccn4)c3C[C@H]2CN1C(=O)c1ccccc1
2.27
4) Cc1cc2c(nc1C)CCCN2CC(O)CN1CCN(C)CC1 (stereo not drawn)
0.0085
5) CCN1C(=O)[C@H]2[C@H]3[C@H](O)[C@H](O)CC(=NOC[C@@H](C)[C@H](OCc4ccccc4)C(C)C)[C@@H]3CC[C@H]2C1=O
0.061
6) O=C1[C@H]2[C@H]3[C@H](O)[C@H](O)CC(=NO[C@@H]4O[C@H](CO)[C@@H](O)[C@H](O)[C@H]4O)[C@H]3CC[C@H]2C(=O)N1Cc1ccc2c(c1)OCO2
0.0435
7) CCOC(=O)CCN1C(=O)[C@H]2[C@H]3[C@H](O)[C@H](O)CC(=O)[C@H]3CC[C@H]2C1=O
-0.451

Please find the next compound below.
Given the compound "CC(C)[C@@H](OCc1ccccc1)[C@H](C)C=NO[C@H](C)c1cn([C@H](CO)Cc2ccccc2)nn1" , what is its reported z-score?
-0.525
